The entries below come with measured MIC, M. intracellulare values attached.
Test system: M. intracellulare (ATCC23068)
Test: in vitro antibacterial activity, modified alamarBlue procedure
Type: cell-based, Mycobacterium intracellulare
Conditions: highest test concentration 20 μg/mL
Please respond with the number in µg/mL and leave the unit unwritten.

compound: CCCCCCOc1c(OC)cc(NC(C)CCCNC(=O)C2CCCN2)c2nc(C(C)(C)C)ccc12 (stereo not shown)
reading.unit: µg/mL
recorded.number: 10.00

Shift focus to the following entry.
Q: Look up MIC, M. intracellulare: CCCCCCCOc1c(OC)cc(NC(C)CCCNC(=O)C2CCCN2)c2nc(C(C)(C)C)ccc12 (stereo not shown)
Ans: 20.00

###

Test system: C. neoformans ATCC90113
Assay: in vitro antifungal activity
Assay type: cell-based, Cryptococcus neoformans
Conditions: Cryptococcus neoformans, ATCC90113, read-out: C. neoformans MFC
The entries below come with measured MFC values attached.
Please respond with the number in µg/mL and leave the unit unwritten.

Examples from the recorded data:
molecule: CCCCCCCOc1c(OC)cc(NC(C)CCCNC(=O)C(N)Cc2cc3ccccc3[nH]2)c2nc(C(C)(C)C)ccc12 (centres unmarked) [compound 115]
system.tested: C. neoformans ATCC90113
recorded.number: 2.5
--
molecule: CCCCCCOc1c(OC)cc(NC(C)CCCNC(=O)C(N)Cc2ccccc2)c2nc(C(C)(C)C)ccc12 (centres unmarked) [compound 106]
system.tested: C. neoformans ATCC90113
recorded.number: 20
--
molecule: C[C@@H]1[C@H](O)[C@@H](C)/C=C/C=C/C=C/C=C/C=C/C=C/C=C/[C@H](O[C@@H]2O[C@H](C)[C@@H](O)[C@H](N)[C@@H]2O)C[C@@H]2O[C@](O)(C[C@@H](O)C[C@@H](O)[C@H](O)CC[C@@H](O)C[C@@H](O)CC(=O)O[C@H]1C)C[C@H](O)[C@H]2C(=O)O [amphotericin B (AMP), amphotericin B, reference compound]
system.tested: C. neoformans ATCC90113
recorded.number: 0.63
--
molecule: CCCCCCCCOc1c(OC)cc(NC(C)CCCNC(=O)C2CCCN2)c2nc(C(C)(C)C)ccc12 (centres unmarked) [compound 123]
system.tested: C. neoformans ATCC90113
recorded.number: 5
--
molecule: CCCCCOc1c(OC)cc(NC(C)CCCNC(=O)C(N)CCCNC(=N)N)c2nc(C(C)(C)C)ccc12 (centres unmarked) [compound 94]
system.tested: C. neoformans ATCC90113
recorded.number: 2.5

Q: Form field: MFC recorded for CCCCCCCOc1c(OC)cc(NC(C)CCCNC(=O)C(N)CCSC)c2nc(C(C)(C)C)ccc12 (centres unmarked) [compound 116] with C. neoformans ATCC90113 (enter value)
Ans: 10

Q: Form field: MFC recorded for CCCCCCCOc1c(OC)cc(NC(C)CCCN)c2nc(C(C)(C)C)ccc12 (centres unmarked) [compound 48] with C. neoformans ATCC90113 (enter value)
Ans: 2.5

Q: Form field: MFC recorded for CCCCCCCCOc1c(OC)cc(NC(C)CCCNC(=O)C(N)C(C)CC)c2nc(C(C)(C)C)ccc12 (centres unmarked) [compound 119] with C. neoformans ATCC90113 (enter value)
Ans: 10

Q: Form field: MFC recorded for COc1cc(NC(C)CCCN)c2nc(C(C)(C)C)ccc2c1Oc1ccc(Cl)c(Cl)c1 (centres unmarked) [compound 55] with C. neoformans ATCC90113 (enter value)
Ans: 5

All values here come from paper PMC6045484.
